Biological target: FL1/WT1/FL2 hERG1 channels (F557L) (Homo sapiens, UniProt Q12809, F557L)
Type: cell-based
Settings: read-out: EC50 for increase in Itest measured at 20 mV, ICA
recorded_metric: pEC50
Units for pEC50: none; it is -log10 of a concentration expressed in mol/L.

Prompt: Bench note: what pEC50 did O=C(Nc1ccc(Oc2ccccc2)cc1)c1cccc([N+](=O)[O-])c1 [ICA, 3-nitro-N-(4-phenoxyphenyl) benzamide] show?
Response: 4.93

###

Target: WT3/LE1 hERG1 channels (L646E) (Homo sapiens, UniProt Q12809, L646E)
Sequence (Q12809 whole entry, stated change not applied): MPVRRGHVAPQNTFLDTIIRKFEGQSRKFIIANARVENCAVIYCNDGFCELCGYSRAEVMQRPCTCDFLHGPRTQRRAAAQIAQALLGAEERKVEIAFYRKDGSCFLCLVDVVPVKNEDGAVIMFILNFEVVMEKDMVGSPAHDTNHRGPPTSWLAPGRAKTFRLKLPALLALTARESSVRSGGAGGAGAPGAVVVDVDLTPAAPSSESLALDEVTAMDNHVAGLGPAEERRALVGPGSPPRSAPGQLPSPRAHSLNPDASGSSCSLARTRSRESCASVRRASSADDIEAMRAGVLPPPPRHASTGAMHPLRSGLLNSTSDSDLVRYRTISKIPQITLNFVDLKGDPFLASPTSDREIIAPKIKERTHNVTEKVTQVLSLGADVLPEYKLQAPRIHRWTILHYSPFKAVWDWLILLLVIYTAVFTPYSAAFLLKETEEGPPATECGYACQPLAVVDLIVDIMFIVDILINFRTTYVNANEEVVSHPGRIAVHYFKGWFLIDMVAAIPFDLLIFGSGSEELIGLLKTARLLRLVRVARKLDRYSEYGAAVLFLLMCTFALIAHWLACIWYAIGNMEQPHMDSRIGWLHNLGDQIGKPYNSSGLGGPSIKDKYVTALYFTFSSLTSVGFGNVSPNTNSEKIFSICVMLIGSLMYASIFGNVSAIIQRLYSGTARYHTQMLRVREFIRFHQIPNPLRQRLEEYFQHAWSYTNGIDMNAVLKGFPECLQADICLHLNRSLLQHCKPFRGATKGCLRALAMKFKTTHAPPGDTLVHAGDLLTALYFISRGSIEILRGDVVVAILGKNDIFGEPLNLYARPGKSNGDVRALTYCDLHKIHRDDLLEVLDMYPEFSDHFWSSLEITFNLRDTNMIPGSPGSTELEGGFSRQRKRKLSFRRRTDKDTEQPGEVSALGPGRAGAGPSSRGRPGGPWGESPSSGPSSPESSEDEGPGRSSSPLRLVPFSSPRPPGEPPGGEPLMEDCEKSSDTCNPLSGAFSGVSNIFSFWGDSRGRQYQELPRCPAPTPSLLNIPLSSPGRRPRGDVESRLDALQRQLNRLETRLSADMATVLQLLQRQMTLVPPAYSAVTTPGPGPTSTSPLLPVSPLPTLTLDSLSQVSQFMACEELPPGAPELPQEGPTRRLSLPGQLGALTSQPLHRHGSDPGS
Sequence (Q12809 whole entry, stated change not applied): as above
Sequence (Q12809 whole entry, stated change not applied): as above
Sequence (Q12809 whole entry L646E): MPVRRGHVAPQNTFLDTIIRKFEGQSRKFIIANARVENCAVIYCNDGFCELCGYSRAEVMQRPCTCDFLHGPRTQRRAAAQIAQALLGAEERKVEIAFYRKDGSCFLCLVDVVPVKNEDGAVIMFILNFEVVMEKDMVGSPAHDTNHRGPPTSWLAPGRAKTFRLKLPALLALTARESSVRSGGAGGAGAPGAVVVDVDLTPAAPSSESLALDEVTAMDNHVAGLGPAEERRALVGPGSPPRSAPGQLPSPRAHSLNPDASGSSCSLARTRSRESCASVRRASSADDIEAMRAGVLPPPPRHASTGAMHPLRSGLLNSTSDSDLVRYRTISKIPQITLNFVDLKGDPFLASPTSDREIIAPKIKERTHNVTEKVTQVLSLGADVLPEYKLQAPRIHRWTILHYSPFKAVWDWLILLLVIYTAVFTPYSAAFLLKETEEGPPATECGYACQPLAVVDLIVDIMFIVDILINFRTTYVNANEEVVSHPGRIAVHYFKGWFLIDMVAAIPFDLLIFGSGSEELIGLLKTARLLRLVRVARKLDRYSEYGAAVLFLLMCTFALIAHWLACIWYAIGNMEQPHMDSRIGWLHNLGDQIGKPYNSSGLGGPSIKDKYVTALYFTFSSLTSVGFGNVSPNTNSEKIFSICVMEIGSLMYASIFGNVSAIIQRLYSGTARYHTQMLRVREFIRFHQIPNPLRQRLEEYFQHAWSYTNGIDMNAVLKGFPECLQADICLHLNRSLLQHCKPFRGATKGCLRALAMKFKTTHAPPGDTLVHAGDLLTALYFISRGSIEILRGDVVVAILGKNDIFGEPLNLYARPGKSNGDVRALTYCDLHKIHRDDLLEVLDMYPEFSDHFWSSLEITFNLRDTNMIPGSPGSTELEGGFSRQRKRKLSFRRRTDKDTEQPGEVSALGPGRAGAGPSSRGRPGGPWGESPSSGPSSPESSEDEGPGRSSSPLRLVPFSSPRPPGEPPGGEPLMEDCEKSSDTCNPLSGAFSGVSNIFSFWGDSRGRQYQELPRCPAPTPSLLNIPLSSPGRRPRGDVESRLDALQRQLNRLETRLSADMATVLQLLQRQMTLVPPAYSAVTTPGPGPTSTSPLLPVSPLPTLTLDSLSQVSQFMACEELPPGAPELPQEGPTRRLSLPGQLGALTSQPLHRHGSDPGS
Assay: Two-electrode voltage clamp, concatenated tetramer WT3/LE1 in Xenopus oocytes
recorded_metric: pEC50
Entry type: numeric. Quantity: pEC50, the -log10 of concentration in molar units.

Prompt: Endpoint output: pEC50 of "O=C(O)c1ccccc1Nc1ccc(CCc2ccc(Cl)c(Cl)c2)cc1" . Value?
Response: 5.32

Origin of values: paper PMC3971662
